Subject of test: human VWF (human)
Sequence (P04275 whole entry): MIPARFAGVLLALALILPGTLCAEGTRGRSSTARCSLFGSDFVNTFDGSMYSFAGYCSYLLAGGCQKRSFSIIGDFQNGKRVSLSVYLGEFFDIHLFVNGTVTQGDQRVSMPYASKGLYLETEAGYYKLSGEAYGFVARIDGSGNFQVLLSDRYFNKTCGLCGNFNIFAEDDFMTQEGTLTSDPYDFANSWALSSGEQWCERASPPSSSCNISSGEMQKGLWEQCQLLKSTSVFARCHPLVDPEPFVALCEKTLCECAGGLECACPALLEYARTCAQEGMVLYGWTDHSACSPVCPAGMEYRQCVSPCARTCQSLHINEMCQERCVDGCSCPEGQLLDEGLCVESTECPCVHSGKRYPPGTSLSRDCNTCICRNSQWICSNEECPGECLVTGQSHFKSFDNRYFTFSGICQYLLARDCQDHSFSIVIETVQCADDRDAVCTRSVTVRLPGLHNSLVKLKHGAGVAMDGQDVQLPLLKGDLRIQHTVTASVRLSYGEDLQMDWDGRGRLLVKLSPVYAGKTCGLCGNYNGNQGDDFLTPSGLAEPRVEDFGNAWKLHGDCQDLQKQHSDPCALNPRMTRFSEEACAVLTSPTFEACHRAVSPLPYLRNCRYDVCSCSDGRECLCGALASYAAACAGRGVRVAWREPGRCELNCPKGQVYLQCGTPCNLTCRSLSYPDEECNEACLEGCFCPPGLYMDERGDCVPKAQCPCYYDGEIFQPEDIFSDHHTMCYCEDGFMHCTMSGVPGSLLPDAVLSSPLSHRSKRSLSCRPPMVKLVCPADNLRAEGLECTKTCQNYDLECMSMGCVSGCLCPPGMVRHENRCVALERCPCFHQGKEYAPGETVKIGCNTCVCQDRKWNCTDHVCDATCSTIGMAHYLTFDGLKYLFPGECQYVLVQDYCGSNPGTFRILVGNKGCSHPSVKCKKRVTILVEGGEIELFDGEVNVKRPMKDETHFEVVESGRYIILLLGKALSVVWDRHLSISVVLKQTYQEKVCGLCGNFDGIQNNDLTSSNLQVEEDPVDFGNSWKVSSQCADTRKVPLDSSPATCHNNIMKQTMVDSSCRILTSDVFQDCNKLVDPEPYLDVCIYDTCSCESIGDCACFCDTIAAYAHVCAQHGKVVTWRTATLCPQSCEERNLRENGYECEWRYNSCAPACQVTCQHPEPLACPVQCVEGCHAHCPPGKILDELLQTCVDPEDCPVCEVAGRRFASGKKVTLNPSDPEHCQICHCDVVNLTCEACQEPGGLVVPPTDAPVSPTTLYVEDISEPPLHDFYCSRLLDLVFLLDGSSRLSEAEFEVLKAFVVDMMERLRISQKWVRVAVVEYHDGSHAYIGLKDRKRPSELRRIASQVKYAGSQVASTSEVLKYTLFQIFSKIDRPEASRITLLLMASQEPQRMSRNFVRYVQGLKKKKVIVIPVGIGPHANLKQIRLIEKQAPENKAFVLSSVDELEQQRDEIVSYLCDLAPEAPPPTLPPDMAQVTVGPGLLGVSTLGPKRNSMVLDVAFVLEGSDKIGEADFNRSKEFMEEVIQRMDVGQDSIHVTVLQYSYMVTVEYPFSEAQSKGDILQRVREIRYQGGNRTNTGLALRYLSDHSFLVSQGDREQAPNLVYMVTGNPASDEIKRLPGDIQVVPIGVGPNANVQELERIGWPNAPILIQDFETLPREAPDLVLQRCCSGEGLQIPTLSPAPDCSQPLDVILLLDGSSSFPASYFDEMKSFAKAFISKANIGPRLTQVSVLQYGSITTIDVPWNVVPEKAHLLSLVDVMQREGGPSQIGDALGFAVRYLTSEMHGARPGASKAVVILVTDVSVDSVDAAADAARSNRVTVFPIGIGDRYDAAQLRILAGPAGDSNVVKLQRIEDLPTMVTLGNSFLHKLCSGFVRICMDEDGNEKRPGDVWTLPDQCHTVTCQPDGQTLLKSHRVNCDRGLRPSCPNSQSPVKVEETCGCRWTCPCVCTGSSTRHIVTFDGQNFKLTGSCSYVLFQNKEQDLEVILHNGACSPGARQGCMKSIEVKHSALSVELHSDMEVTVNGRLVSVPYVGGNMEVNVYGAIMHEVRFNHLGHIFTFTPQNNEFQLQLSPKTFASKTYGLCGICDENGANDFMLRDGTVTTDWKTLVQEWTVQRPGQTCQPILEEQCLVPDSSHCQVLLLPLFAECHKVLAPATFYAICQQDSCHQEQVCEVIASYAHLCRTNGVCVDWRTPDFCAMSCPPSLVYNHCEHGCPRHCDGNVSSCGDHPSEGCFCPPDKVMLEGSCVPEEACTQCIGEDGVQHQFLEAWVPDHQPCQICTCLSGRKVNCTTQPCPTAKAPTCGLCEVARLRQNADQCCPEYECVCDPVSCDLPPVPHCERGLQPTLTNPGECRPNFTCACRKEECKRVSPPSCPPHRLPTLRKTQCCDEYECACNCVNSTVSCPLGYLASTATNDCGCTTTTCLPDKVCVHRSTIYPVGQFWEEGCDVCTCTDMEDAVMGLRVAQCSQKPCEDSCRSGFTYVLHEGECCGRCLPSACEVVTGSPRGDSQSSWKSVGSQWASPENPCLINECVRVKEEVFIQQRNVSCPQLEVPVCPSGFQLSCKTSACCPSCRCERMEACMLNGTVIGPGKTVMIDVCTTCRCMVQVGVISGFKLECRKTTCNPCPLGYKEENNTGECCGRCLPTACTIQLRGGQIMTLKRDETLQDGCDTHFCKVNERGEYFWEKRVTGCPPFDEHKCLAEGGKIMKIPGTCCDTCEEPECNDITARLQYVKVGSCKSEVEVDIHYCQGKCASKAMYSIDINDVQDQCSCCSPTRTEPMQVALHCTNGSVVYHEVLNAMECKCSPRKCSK
Assay remarks: ELISA
Endpoint label: EC50 (µg/mL)
Reply with just the number (in µg/mL).

Reference set, count: 2
[[record]]
binder = "25B05_H3-L3 (antibody, V domains shown) VH: EVQLVQSGAEVKKPGASVKVSCKASGYTFTDYFMNWVRQAPGQRLEWMGVINPHNGGTSYSQKFQGRVTITVDKSSSTAYMELSSLRSEDTAVYYCARRPLGSDYWGQGTTVTVSS VL: DIQMTQSPSSVSASVGDRVTITCKASQNVGTAVAWYQQKPGKAPKLLIYSASSRYTEVPDRFSGSGSGTDFTLTISSLQPEDFATYYCQQYSSYPLTFGQGTKLEIK"
value_unit = "µg/mL"
recorded_number = 0.0434

[[record]]
binder = "33D03_H1-L2 (antibody, V domains shown) VH: QVQLVQSGAEVKKPGASVKVSCKASGYTFTDYYLNWVRQAPGQRLEWMGIINPYNGGTNYSQKFQGRVTITRDTSASTAYMELSSLRSEDTAVYYCASEGLRTWFTYWGQGTLVTVSS VL: DIVMTQSPDSLAVSLGERATISCKSSQSLSNSGNQKIYLAWYQQKPGQPPKLLIYGASSRESGVPDRFSGSGSGTDFTLTISSLQAEDVAVYYCQNDHSHPFTFGQGTKLEIK"
value_unit = "µg/mL"
recorded_number = 0.0453


Kindly consider the entry below.
Challenge: # query: EC50 of entry 33D03_H2-L3 (antibody, V domains shown) VH: QVQLVQSGAEVKKPGASVKVSCKASGYTFTDYYLNWVRQAPGQRLEWMGIINPYNGGTNYNQRFKGRVTITRDTSASTAYMELSSLRSEDTAVYYCASEGLRTWFTYWGQGTLVTVSS VL: DIVMTQSPDSLAVSLGERATINCKSSQSLSNSGNQKIYLAWYQQKPGQPPKLLIYGASSRESGVPDRFSGSGSEIDFTLTISSLQAEDVAVYYCQNDHSHPFTFGQGTKLEIK
Response given: 0.0371
